All figures here come from patent US20260116991A1.

# EC50 listing for each entry below
- TESTED TARGET: T1, human GPC3 on CHO-K1-human GPC3 cells (CHOK1-hGPC3.2B5) (human, UniProt P51654 25-554)
- T1 construct: whole, on cells
- EXPERIMENTAL PROTOCOL: FACS, CHOK1-hGPC3.2B5 cells;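 note: flow cytometry of humanized antibodies binding to the cells over one hour in the cold, read as cell mean fluorescence intensity, with EC50 obtained by curve fitting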
Write it as a number; the unit nM goes unstated.

- BINDER: "hAb006LH2L1b (antibody, human IgG1, V domains shown, Humanized F3.38.7; VH H2 + VL L1b; expressed as human IgG1) VH: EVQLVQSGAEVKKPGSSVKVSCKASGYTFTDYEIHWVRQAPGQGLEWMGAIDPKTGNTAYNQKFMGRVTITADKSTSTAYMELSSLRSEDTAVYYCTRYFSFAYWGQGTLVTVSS VL: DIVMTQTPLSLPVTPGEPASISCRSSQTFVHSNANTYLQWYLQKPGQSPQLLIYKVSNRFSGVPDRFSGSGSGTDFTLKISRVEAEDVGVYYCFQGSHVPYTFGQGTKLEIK"
  UNIT SYMBOL: "nM"
  EC50: 1.14
- BINDER: "hAb005LH3L1b (antibody, human IgG1, V domains shown, Humanized F3.54.12; VH H3 + VL L1b; expressed as human IgG1) VH: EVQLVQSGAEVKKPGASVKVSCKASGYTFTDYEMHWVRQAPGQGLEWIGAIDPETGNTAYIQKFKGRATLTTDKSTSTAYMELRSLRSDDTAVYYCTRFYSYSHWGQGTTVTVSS VL: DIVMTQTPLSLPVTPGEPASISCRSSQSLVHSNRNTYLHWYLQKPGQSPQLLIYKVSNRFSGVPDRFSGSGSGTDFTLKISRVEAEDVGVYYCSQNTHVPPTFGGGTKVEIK"
  UNIT SYMBOL: "nM"
  EC50: 0.558

Please examine the following record next.
## Task // lookup EC50 for hAb007LH3L1b (antibody, human IgG1, V domains shown, Humanized F3.81.19; VH H3 + VL L1b; expressed as human IgG1) VH: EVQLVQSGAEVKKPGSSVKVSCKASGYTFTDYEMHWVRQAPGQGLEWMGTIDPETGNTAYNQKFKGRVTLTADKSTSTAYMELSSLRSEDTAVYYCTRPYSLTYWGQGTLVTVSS VL: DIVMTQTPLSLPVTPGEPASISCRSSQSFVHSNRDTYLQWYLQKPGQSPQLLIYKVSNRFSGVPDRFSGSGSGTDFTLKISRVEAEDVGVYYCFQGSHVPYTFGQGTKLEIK
## Result 7.33
